Notes on IC50 obtained with fully phosphorylated, active Mouse ERK2 protein (Mus musculus, UniProt P63085).
Sequence (P63085 whole entry): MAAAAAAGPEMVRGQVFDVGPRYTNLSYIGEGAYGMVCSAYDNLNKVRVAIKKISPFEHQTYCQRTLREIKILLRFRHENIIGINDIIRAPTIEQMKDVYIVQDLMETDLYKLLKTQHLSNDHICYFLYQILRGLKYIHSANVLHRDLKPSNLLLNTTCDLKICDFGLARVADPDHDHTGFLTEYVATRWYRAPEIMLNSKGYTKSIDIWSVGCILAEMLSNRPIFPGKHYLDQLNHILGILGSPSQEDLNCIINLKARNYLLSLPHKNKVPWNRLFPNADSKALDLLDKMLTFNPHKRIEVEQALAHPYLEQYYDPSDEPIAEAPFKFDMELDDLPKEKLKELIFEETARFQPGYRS

Use the examples below as a reference point.
Cc1nc(CN2CCSC(C(=O)Nc3ccc4[nH]nc(-c5ccncc5)c4c3)C2)cs1 (centres unmarked) [Compound 11]; 475 nM
O=C(Nc1ccc2[nH]nc(-c3ccncc3)c2c1)C1CNCCC1c1ccc(F)cc1 (centres unmarked) [Compound 52]; 56.5 nM
O=C(Nc1ccc2[nH]nc(-c3ccncc3)c2c1)C1CN(Cc2cccc(F)c2F)CCO1 (centres unmarked) [Compound 43]; 139 nM
O=C(Nc1ccc2[nH]nc(-c3ccncc3)c2c1)C1CN(CCCc2ccccc2)CCS1 (centres unmarked) [Compound 67]; 1000 nM
O=C(Nc1ccc2[nH]nc(-c3ccncc3)c2c1)C1CN(Cc2ccccc2)CCC12OCCO2 (centres unmarked) [Compound 72]; 1000 nM

Exercise: # return recorded IC50 for entry O=C(Nc1ccc2[nH]nc(-c3ccncc3)c2c1)C1CN(Cc2ccccc2F)CC[S+]1[O-] (centres unmarked) [Compound 69]
Key: 2.7 nM

Exercise: State its IC50: Cc1nc(CN2CCOC(C(=O)Nc3ccc4[nH]nc(-c5ccncc5)c4c3)C2)cs1 (centres unmarked) [Compound 18]
Key: 18100 nM

Exercise: Hello, please tell me recorded IC50 for this one: O=C(Nc1ccc2[nH]nc(-c3ccncc3)c2c1)C1CN(Cc2cscn2)CCO1 (centres unmarked) [Compound 2]
Key: 583 nM
